All figures here come from patent US5264565A.

Target: D2(414) receptor (Homo sapiens)
Sequence (P14416 1-414 isoform P14416-2): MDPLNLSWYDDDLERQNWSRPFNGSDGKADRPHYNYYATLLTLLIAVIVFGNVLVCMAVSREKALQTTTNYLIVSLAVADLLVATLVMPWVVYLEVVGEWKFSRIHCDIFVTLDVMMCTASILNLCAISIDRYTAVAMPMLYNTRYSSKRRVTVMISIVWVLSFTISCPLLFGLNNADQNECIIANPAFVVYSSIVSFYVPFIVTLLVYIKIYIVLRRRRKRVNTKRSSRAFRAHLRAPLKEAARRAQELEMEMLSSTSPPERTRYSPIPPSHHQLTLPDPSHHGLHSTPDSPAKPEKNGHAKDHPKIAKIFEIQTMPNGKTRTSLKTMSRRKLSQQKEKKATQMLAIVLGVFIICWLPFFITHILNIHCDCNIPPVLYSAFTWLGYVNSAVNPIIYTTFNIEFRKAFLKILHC
Test: Competition binding assay with [3H]-spiperone, D2(414) receptor
Parameters: expressed in transfected cells
Measured Property: pKi
Notebook: values listed as pKi are -log10 of the concentration (mol/L).

# query: pKi of entry "CN1CCc2cc(Cl)c(O)cc2[C@@H](c2ccccc2)C1" 5.68

====

Target: D2 /ml receptor
Experiment: Competition binding assay with [3H]-spiperone, D2/ml chimeric receptor
Settings: D2/ml Receptor; 0.5 nM [3H]-spiperone; anti-log of mean log Ki, three experiments; Cheng-Prusoff
Sorting guide: entries reporting Ki beneath 2 µM go in the fulfilled pile, the rest go in the not fulfilled pile.

Some solved cases for reference:
# Compound, Label Value
records = [
    ("NCCc1ccc(O)c(O)c1", "not fulfilled"),
    ("CCCN(CCc1ccccc1)C1CCc2c(O)cccc2C1 (centres unmarked)", "fulfilled"),
    ("CCN1CCC[C@H]1CNC(=O)c1cc(S(N)(=O)=O)ccc1OC [(-) Sulpiride]", "fulfilled"),
    ("Oc1cc2c(cc1O)C(c1ccccc1)CNCC2 (centres unmarked)", "not fulfilled"),
]

Next, consider the following compound.
Please state whether Ki is below 2 µM for "CN1CCc2cc(Cl)c(O)cc2[C@@H](c2ccccc2)C1" not fulfilled
